tested on: Staphylococcus aureus; assay: Antibacterial activity against Staphylococcus aureus ATCC 29213 incubated for 24 hrs by microtiter plate method; format: functional; conditions: Staphylococcus aureus, ATCC 29213, read-out: MIC
Bridge positions count the residues as written; N and C are the ends. Square brackets hold non-standard residues; d marks the D form. Peptide text beside a SMILES is read from it. * marks the point of attachment. Bip = N[C@@H](Cc1ccc(-c2ccccc2)cc1)C(=O)O; Dip = N[C@H](C(=O)O)C(c1ccccc1)c1ccccc1; X1 = CC[C@H](C)CCCCC(=O)*; Dab = NCC[C@H](N)C(=O)O
Would you kindly list MIC for each of these compounds?
Numbers only, in mg/L.

compound: N=C(N)NCCC[C@H](NC(=O)[C@H](CCCNC(=N)N)NC(=O)[C@H](CCCNC(=N)N)NC(=O)[C@@H](N)CCCNC(=N)N)C(=O)N[C@@H](CCCNC(=N)N)C(=O)N[C@H](C(=O)N[C@H](C(=O)N[C@H](C(=O)O)C(c1ccccc1)c1ccccc1)C(c1ccccc1)c1ccccc1)C(c1ccccc1)c1ccccc1 (H-RRRRR[Dip][Dip][Dip]-OH)
unit_name: mg/L
MIC: 12.5
//
compound: CC[C@H](C)CCCCC(=O)N[C@@H](CCN)C(=O)N[C@H](C(=O)N[C@@H](CCN)C(=O)N[C@H]1CCNC(=O)[C@H]([C@@H](C)O)NC(=O)[C@H](CCN)NC(=O)[C@H](CCN)NC(=O)[C@H](CC(C)C)NC(=O)[C@@H](Cc2ccccc2)NC(=O)[C@H](CCN)NC1=O)[C@@H](C)O (X1-[Dab]T[Dab][Dab][Dab][dF]L[Dab][Dab]T; lactam 4-C)
unit_name: mg/L
MIC: 0.7

# query: MIC of entry N=C(N)NCCC[C@H](NC(=O)[C@H](CCCNC(=N)N)NC(=O)[C@@H](N)CCCNC(=N)N)C(=O)N[C@@H](Cc1ccc(-c2ccccc2)cc1)C(=O)N[C@@H](Cc1ccc(-c2ccccc2)cc1)C(=O)N[C@@H](Cc1ccc(-c2ccccc2)cc1)C(=O)O (H-RRR[Bip][Bip][Bip]-OH)
50

###

assay: Hemolytic activity in human RBC assessed as hemolysis incubated for 2 hrs by spectrophotometer analysis; format: toxicity, cell-based, Erythrocyte; settings: human red blood cells (erythrocytes)
Square brackets hold non-standard residues; d marks the D form. Peptide text beside a SMILES is read from it. Dip = N[C@H](C(=O)O)C(c1ccccc1)c1ccccc1; 2Nal = N[C@@H](Cc1ccc2ccccc2c1)C(=O)O
assay_metric: HC50 at 2 h (µg/mL)
One number for each entry, in µg/mL.

Example cases with answers are listed next.
molecule: NCCCC[C@@H]1NC(=O)[C@H](CCCCN)NC(=O)[C@H](CCCCN)NC(=O)[C@H](C(c2ccccc2)c2ccccc2)NC(=O)[C@H](C(c2ccccc2)c2ccccc2)NC(=O)[C@H](C(c2ccccc2)c2ccccc2)NC(=O)[C@H](CCCCN)NC1=O (cyclo([Dip][Dip][Dip]KKKK))
unit_name: µg/mL
HC50 at 2 h: 165
--
molecule: N=C(N)NCCC[C@@H]1NC(=O)[C@H](CCCNC(=N)N)NC(=O)[C@H](CCCNC(=N)N)NC(=O)[C@H](Cc2ccc3ccccc3c2)NC(=O)[C@H](Cc2ccc3ccccc3c2)NC(=O)[C@H](Cc2ccc3ccccc3c2)NC(=O)[C@H](CCCNC(=N)N)NC(=O)[C@H](CCCNC(=N)N)NC1=O (cyclo([2Nal][2Nal][2Nal]RRRRR))
unit_name: µg/mL
HC50 at 2 h: 90
--
molecule: N=C(N)NCCC[C@@H]1NC(=O)[C@H](CCCNC(=N)N)NC(=O)[C@H](CCCNC(=N)N)NC(=O)[C@H](C(c2ccccc2)c2ccccc2)NC(=O)[C@H](C(c2ccccc2)c2ccccc2)NC(=O)[C@H](C(c2ccccc2)c2ccccc2)NC(=O)[C@H](CCCNC(=N)N)NC(=O)[C@H](CCCNC(=N)N)NC1=O (cyclo([Dip][Dip][Dip]RRRRR))
unit_name: µg/mL
HC50 at 2 h: 100
--
molecule: N=C(N)NCCC[C@@H]1NC(=O)[C@H](CCCNC(=N)N)NC(=O)[C@H](Cc2ccc3ccccc3c2)NC(=O)[C@H](Cc2ccc3ccccc3c2)NC(=O)[C@H](Cc2ccc3ccccc3c2)NC(=O)[C@H](CCCNC(=N)N)NC1=O (cyclo([2Nal][2Nal][2Nal]RRR))
unit_name: µg/mL
HC50 at 2 h: 50
--
molecule: N=C(N)NCCC[C@@H]1NC(=O)[C@H](CCCNC(=N)N)NC(=O)[C@H](CCCNC(=N)N)NC(=O)[C@H](C(c2ccccc2)c2ccccc2)NC(=O)[C@H](C(c2ccccc2)c2ccccc2)NC(=O)[C@H](C(c2ccccc2)c2ccccc2)NC(=O)[C@H](CCCNC(=N)N)NC1=O (cyclo(RRRR[Dip][Dip][Dip]))
unit_name: µg/mL
HC50 at 2 h: 70

Dear colleague, could you please provide HC50 at 2 h for the molecules listed below?
1. N=C(N)NCCC[C@@H]1NC(=O)[C@H](CCCNC(=N)N)NC(=O)[C@H](Cc2ccc3ccccc3c2)NC(=O)[C@H](Cc2ccc3ccccc3c2)NC(=O)[C@H](CCCNC(=N)N)NC(=O)[C@H](CCCNC(=N)N)NC(=O)[C@H](Cc2ccc3ccccc3c2)NC1=O (stereo in doubt; 18C)
2. N=C(N)NCCC[C@H](NC(=O)[C@H](CCCNC(=N)N)NC(=O)[C@@H](N)CCCNC(=N)N)C(=O)N[C@@H](Cc1ccc2ccccc2c1)C(=O)N[C@@H](Cc1ccc2ccccc2c1)C(=O)N[C@@H](Cc1ccc2ccccc2c1)C(=O)O (H-RRR[2Nal][2Nal][2Nal]-OH)

[105, 105]
